Source of measurements: the supplement of paper PMC6757056

B1: library; a variant is named by its letters at N, in order (parent)
chain: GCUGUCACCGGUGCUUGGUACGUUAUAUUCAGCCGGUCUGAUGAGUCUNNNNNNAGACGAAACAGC

# Variants of: B1
# assayRemarks: normalized RNA/DNA level without ligand (relative to sTRSVctl = 100) (log10 (% of sTRSVctl)); HEK293T overexpressing SLC46A1; higher = less ribozyme self-cleavage, higher mRNA level
# conditionNotes: without (6R,S)-folinic acid; ligand present: no
propertyName: normalized RNA/DNA level without ligand (log10)
One number for each entry.

Completed entries (count: 3):
GCUGUCACCGGUGCUUGGUACGUUAUAUUCAGCCGGUCUGAUGAGUCUGGUCCCAGACGAAACAGC [GGUCCC] | 2.04
GCUGUCACCGGUGCUUGGUACGUUAUAUUCAGCCGGUCUGAUGAGUCUGCCACUAGACGAAACAGC [GCCACU] | 2.02
GCUGUCACCGGUGCUUGGUACGUUAUAUUCAGCCGGUCUGAUGAGUCUCGAUAAAGACGAAACAGC [CGAUAA] | 1.95

# ---- query variant ----
Return normalized RNA/DNA level without ligand (log10) (reported value) for this variant: GCUGUCACCGGUGCUUGGUACGUUAUAUUCAGCCGGUCUGAUGAGUCUUAUAGAAGACGAAACAGC [UAUAGA]
1.91
